Some molecules, each annotated with its measured TGI.
# System: LOX IMVI melanoma
# procedure_text: NCI tumour cell line growth inhibition, 48 h
metric: TGI (µM)

molecule	qualifying_sign	measurement
COC1(CC[C@H](C)COC2OC(CO)C(O)C(O)C2O)O[C@H]2C[C@H]3[C@@H]4CC=C5C[C@@H](OC6OC(CO)C(OC7OC(C)C(O)C(O)C7O)C(O)C6OC6OC(C)C(O)C(O)C6O)CC[C@]5(C)[C@H]4CC[C@]3(C)[C@H]2[C@@H]1C (stereo partly drawn)	=	3.6
CC1=NN2C(=N)/C(=C/c3ccc(F)cc3)C(=O)N=C2S1	>	100
COc1cc(N=Nc2ccc(OC)c(S(=O)(=O)O)c2)c(C)cc1N=Nc1ccc(/C=C/c2ccc(N=[N+]([O-])c3ccc(/C=C/c4ccc(N=Nc5cc(C)c(N=Nc6ccc(OC)c(S(=O)(=O)O)c6)cc5OC)cc4S(=O)(=O)O)c(S(=O)(=O)O)c3)cc2S(=O)(=O)O)c(S(=O)(=O)O)c1	>	100
COc1cc(NCCCCCN=C(N)NC(N)=NC(C)C)c2ncccc2c1	=	2.79
C=C1C[C@@H]2C[C@@H](C)CC(O)[C@]2(CCCN)C1O (stereo partly drawn)	>	100
CSc1nc(Cl)c2c(n1)Sc1nc3ccccc3n1C2O (stereo not drawn)	=	3.9
Cc1cccc2c1[nH]c(=O)c1c3ccccc3cn21	=	18.4
COc1cc2c(cc1OCc1ccccc1)NC(=O)[C@@H]1CCCN1C2=O	>	100
c1ccc2c(c1)cc1ccc3cccc4ccc2c1c34	>	100
CC(C)c1ccc(NC(=O)Cc2ccc(Nc3ncnc4cc(-c5cnn(CCN(C)C)c5)ccc34)cc2)cc1	=	3.37
COc1ccc([C@@H]2OC(=O)C3C2C(=O)O[C@H]3c2ccc(OC)c(OC)c2)cc1OC (stereo partly drawn)	>	100
CN(C)CCCNC(=O)N/N=C/c1ccccc1	>	100
N#Cc1cc(S(=O)(=O)Nc2nc3ccccc3o2)c(SCc2ccccc2)cc1Cl	=	36.5
CC(C)=CCC[C@@H](C)C1=C(Nc2ccccc2F)C(O)=C(C)C(=O)C1=O	>	100
Cc1c(C(=O)NNc2ccccc2)n2c(=S)[nH]nc2c2ccccc12	>	100
COc1ccc(C2C=C(c3ccc(C)cc3)N(c3ccc(OC)cc3[N+](=O)[O-])C3C(=O)OC(=O)C23)c(OC)c1 (stereo not drawn)	=	57
O=C(Nc1nn(C(=O)c2cccnc2)c(=O)s1)c1ccc(Cl)cc1	>	100
O=C1C=CC(=O)c2c(O)c(N3CCC[C@@H]3CO)c(Cl)c(O)c21	=	3.16

* * *

# Tested on: RXF 393 renal
# procedure_text: NCI tumour cell line growth inhibition, 48 h; in the data active means GI50 below about 0.43 µM; inactive means the rest
Possible outcomes: active, inactive

compound	assigned_category
C=C1CCC2C3(C)COC(c4ccccc4Cl)OC3CCC2(C)C1/C=C/C1=CCOC1=O (configuration not stated)	inactive
CCN(CC)CCCCNc1c2ccc(Cl)cc2nc2ccc(OC)cc12	active
Nc1cccc2c1C(=O)c1cccc(NC(=O)c3ccccc3)c1C2=O	active
CCC1=C(CC2NCCc3ccccc32)CC2c3cc(OC)c(OC)cc3CCN2C1 (configuration not stated)	inactive
O=C(Nc1cccc(C(F)(F)F)c1)Oc1ccc(Cl)c2cccnc12	inactive
COc1cc2nccc(Oc3ccc(NC(=O)c4cn(C(C)C)c(=O)n(-c5ccc(F)cc5)c4=O)cc3F)c2cc1OC	inactive
O=C(/C=C/C12c3ccccc3C(c3ccccc31)C1C(=O)NC(=O)C12)c1ccccc1 (configuration not stated)	inactive
COc1c(N2CCN(CN3C(=O)C(=Nc4ccc(S(=O)(=O)Nc5ncccn5)cc4)c4cc(Cl)ccc43)C(C)C2)c(F)cc2c(=O)c(C(=O)O)cn(C3CC3)c12 (configuration not stated)	inactive
CC(C)(C)OC(=O)Nc1ccc2c(c1)C(NC(=O)Nc1cccc(C#N)c1)CC(C)(C)O2 (configuration not stated)	inactive
C[CH2][Sn]([CH2]C)([O]C(=O)c1ccc(F)cc1)[O]C(=O)c1ccc(F)cc1	inactive
Cc1ccc(C(=O)NC2CC2)cc1-c1ccc2[nH]ncc2c1	inactive
CN1CCN(CCCOc2cc(O)c3c(=O)cc(-c4ccccc4)oc3c2)CC1	inactive
O=C1N=C(Nc2nc(-c3csc(NC4=NC(=O)/C(=C\c5ccccc5)S4)n3)cs2)S/C1=C/c1ccccc1	inactive
CC(C)c1ccc(NC(=O)Cc2ccc(Nc3ncnc4cc(-c5cnn(CCN(C)C)c5)ccc34)cc2)cc1	inactive
C1=CCCC=CCC1.C[PH+](C)C.C[PH+](C)C.C[PH+](C)C.[Cl-].[Ir]	inactive
COc1cc2c3c(n(CCCNCCCN)c(=O)c2cc1OC)-c1cc2c(cc1C3=O)OCO2	inactive
COc1ccc2nc3cc(Cl)ccc3c(Nc3cc(CN4CCCC4)c(O)c(CN4CCCC4)c3)c2n1	inactive

Values compiled from PubChem BioAssay (NCI).
